These data points were gathered from ChEMBL document CHEMBL4364304.

target: Angiotensin-converting enzyme (Sus scrofa, UniProt F1RRW5)
Sequence (F1RRW5 whole entry): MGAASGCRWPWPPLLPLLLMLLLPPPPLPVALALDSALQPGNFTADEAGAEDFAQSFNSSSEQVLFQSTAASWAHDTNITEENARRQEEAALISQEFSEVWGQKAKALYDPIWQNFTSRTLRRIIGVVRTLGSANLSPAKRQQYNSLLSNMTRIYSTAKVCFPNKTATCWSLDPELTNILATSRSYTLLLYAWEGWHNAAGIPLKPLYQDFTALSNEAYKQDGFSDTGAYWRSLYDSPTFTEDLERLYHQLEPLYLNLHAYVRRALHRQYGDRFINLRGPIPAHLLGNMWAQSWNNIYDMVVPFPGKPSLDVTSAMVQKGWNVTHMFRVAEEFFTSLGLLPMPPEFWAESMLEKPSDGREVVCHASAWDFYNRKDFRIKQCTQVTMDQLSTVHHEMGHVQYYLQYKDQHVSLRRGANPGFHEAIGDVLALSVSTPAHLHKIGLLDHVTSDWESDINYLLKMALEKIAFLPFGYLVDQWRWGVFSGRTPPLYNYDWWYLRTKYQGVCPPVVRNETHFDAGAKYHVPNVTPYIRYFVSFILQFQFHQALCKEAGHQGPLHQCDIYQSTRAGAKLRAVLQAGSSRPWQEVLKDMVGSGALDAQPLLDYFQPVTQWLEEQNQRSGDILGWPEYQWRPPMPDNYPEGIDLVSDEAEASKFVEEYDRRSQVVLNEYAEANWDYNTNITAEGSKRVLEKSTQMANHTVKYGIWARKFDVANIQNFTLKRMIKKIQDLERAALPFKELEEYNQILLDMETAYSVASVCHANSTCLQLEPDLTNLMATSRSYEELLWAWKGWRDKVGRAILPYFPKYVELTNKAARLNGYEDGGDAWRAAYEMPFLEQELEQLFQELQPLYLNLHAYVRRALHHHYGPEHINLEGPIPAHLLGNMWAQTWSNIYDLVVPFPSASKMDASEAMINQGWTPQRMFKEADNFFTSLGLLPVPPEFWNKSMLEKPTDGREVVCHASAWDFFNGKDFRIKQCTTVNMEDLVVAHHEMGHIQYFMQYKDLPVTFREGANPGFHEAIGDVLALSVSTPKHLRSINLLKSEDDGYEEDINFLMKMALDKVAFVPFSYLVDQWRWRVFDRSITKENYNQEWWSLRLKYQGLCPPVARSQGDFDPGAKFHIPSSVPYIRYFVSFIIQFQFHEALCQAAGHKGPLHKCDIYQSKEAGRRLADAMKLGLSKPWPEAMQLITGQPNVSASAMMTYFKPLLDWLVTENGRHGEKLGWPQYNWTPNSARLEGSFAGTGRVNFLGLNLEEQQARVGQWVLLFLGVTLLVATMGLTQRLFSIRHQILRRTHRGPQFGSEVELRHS
Residues, ends and D or L forms follow the SMILES beside them.
measured_attribute: IC50 (µM)

P = CC[C@H](C)[C@H](N)C(=O)N[C@@H](CCC(N)=O)C(=O)N[C@@H](CCCCN)C(=O)N[C@H](C(=O)N[C@@H](C)C(=O)NCC(=O)N[C@H](C(=O)N[C@@H](Cc1c[nH]c2ccccc12)C(=O)O)[C@@H](C)O)C(C)C (H-IQKVAGTW-OH)
Q = CC[C@H](C)[C@H](NC(=O)[C@H](CC(C)C)NC(=O)[C@@H]1CCCN1C(=O)[C@H](CC(C)C)NC(=O)[C@@H]1CCCN1C(=O)[C@@H](NC(=O)CN)[C@@H](C)CC)C(=O)O (H-GIPLPLI-OH)
[in] Which gives the smaller IC50 number: P or Q ? Answer = label.
[out] Q

---

target: Dipeptidyl peptidase 4 (Homo sapiens, UniProt P27487); assay: Inhibition of recombinant human DPP4 using H-Gly-Pro conjugated amino methyl coumarin as substrate by fluorometric assay
Sequence (P27487 whole entry): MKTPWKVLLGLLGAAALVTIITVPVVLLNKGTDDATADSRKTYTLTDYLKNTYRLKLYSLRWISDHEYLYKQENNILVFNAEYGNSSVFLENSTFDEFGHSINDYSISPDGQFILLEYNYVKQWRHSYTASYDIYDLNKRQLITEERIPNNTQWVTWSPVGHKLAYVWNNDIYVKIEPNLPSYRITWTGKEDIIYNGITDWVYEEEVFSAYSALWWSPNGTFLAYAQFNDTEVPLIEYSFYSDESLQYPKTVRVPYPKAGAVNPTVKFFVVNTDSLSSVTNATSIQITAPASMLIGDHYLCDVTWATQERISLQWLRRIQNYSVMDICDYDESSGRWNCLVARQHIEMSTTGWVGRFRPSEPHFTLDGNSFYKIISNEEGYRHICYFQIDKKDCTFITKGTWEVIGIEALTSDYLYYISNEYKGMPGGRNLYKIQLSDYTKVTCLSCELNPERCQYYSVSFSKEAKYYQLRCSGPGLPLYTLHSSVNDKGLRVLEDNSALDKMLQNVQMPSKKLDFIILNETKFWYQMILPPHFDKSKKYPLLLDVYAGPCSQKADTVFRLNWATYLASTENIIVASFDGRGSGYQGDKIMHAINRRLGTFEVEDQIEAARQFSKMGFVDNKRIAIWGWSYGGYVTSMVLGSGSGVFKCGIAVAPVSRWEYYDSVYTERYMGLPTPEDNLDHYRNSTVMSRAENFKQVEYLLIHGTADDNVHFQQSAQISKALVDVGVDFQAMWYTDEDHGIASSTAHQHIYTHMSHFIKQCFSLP
Residues, ends and D or L forms follow the SMILES beside them.
measured_attribute: pIC50
pIC50 is defined as minus the log10 of a concentration measured in mol/L.

Notebook: CC[C@H](C)[C@H](NC(=O)[C@H](CC(C)C)NC(=O)[C@@H]1CCCN1C(=O)[C@H](CC(C)C)NC(=O)[C@@H]1CCCN1C(=O)[C@@H](NC(=O)CN)[C@@H](C)CC)C(=O)O (H-GIPLPLI-OH) , pIC50 read as 2.42
